Tested on: U-251
Assay: NCI tumour cell line growth inhibition, 48 h
Calls of active or inactive are those of the source. No stated cut-off is given here; in the data, active = GI50 up to about 1.1 µM and inactive = higher.
Labels: T for active, F for inactive

> print(dat)
                                    molecule  tested.target  category
 1             CN(C)CCCn1cnc2cc(Cl)c(Cl)cc21          U-251         F
 2   C#CC1NC(=O)C1N(CC)CC (stereo not given)          U-251         F
 3       Cc1n[nH]c(=O)c2cc(-c3ccccc3)[nH]c12          U-251         F
 4  CC(C)NC(=O)OCc1nnn2c1C(OC(=O)NC(C)C)CC2 (stereo not given)          U-251         F
 5  CCc1cc2c(c3c1CCC3=O)CC1(Cc3ccc(C)cc3C1)C2 (stereo not given)          U-251         F
 6  CCOc1ccc(N/C(=C(/C(Cl)=C(/Cl)N(CC)CC)[N+](=O)[O-])n2nnc3ccccc32)cc1          U-251         F
 7  O=c1[nH]c(=O)n(C2CC(O)C(COP(=O)(OCC(Cl)(Cl)Cl)OCC(Cl)(Cl)Cl)O2)cc1F (stereo not given)          U-251         F
 8  CCCC(O)c1cn(C(NC(=O)c2ccccc2)P(=O)(OCC)OCC)nn1 (stereo not given)          U-251         F
 9                O=c1ccc2c(Cl)sc(Cl)c2[nH]1          U-251         F
10  CCCCC1Cc2cc(OC)ccc2-c2n1c1cc(OC)ccc1[n+]2C.CCCCC1Cc2cc(OC)ccc2-c2n1c1ccc(OC)cc1[n+]2C (stereo not given)          U-251         T
11  O=S1(=O)OCCOS(=O)(=O)C1S(=O)(=O)c1cccc2ccccc12          U-251         F
12    COc1cc(-c2oc3ccccc3c(=O)c2O)cc(OC)c1OC          U-251         F
13  COc1ccccc1C[C@@H]1OC2(C=CC(=O)CC2SC(=O)c2ccccc2)O[C@H]1Cc1ccccc1OC (stereo not given in full)          U-251         F
14  Nc1ccc(C(c2ccccc2)(c2ccccc2)c2ccccc2)cc1          U-251         F
15    NC(=O)NCCSC1CCCCC1O (stereo not given)          U-251         F
16  NNC(=O)c1ccccc1NC(=O)/C(=C/c1ccccc1O)NC(=O)c1ccccc1          U-251         F
17  CCOC(=O)[C@H](Cc1ccc(O)cc1)/N=C1/[C@H]2CCC[C@]1(O)[C@@](C)([N+](=O)[O-])C2          U-251         F
18  C=C[C@]1(O[Si](C)(C)C)C[C@@]2(C(=O)OCC)C(O)C(=O)N3CCc4cc(OC)c(OC)cc4[C@]312 (stereo not given in full)          U-251         F
19  CC(=O)Oc1ccc2c(c1)c1c(=O)oc(N(C)C)nc1n2Cc1ccccc1          U-251         F
20  Cc1cc2c(cc1-c1cc3c(cc1C)C(C(C)C)=C(O)C(=O)/C3=C\Nc1ccccn1)/C(=C/Nc1ccccn1)C(=O)C(O)=C2C(C)C          U-251         F

###

Tested on: K562
Test: NCI tumour cell line growth inhibition, 48 h
Calls of active or inactive are those of the source. Cut-off read from the data, not from the text of the source: active = GI50 up to about 1.1 µM and inactive = higher.
experimental endpoint: GI50

> print(dat)
                                   molecule  tested.target               result
1  CC1(C)OCC2OC3([C@H]4OC(C)(C)O[C@@H]4CO)OC(C)(C)OC3C2O1 (stereo not given in full)           K562  > 100 µM (inactive)
2  CCCCCCCCCCCCCCCCNC(=O)/C(O)=C/C(=O)c1ccc(C)cc1           K562   > 10 µM (inactive)
3  COc1ccccc1C[C@@H]1OC2(C=CC(=O)CC2SC(=O)c2ccccc2)O[C@H]1Cc1ccccc1OC (stereo not given in full)           K562   2.51 µM (inactive)
4  CN1C(=O)C2C(C1=O)C1(O)c3ccccc3C2(N)c2ccccc21 (stereo not given)           K562  > 100 µM (inactive)
5  COC(=O)CN(CC1O[C@@H]2OC(C)(C)O[C@@H]2C1NC(C)=O)C(=O)OCc1ccccc1 (stereo not given in full)           K562  > 100 µM (inactive)

###

Tested on: PC-3
Assay: NCI tumour cell line growth inhibition, 48 h
The source made the active and inactive calls. Rule as the data show it: active = GI50 up to about 1.1 µM and inactive = higher. Non-standard residues stand in square brackets, D forms with d. Residues, ends and D or L forms follow the SMILES beside them. ξ: configuration not given here. *: point of attachment. NMeY = CN[C@@H](Cc1ccc(O)cc1)C(=O)O; Cbz = O=C(OCc1ccccc1)*; ξA = CC(N)C(=O)O
GI50 reference
experimental endpoint: GI50

compound	experimental endpoint	result
COC(=O)[C@@H]1Cc2cc(O)c(O)cc2C2(CCN(C)CC2)O1	GI50	> 10 µM (inactive)
COC(=O)CN(CC1O[C@@H]2OC(C)(C)O[C@@H]2C1NC(C)=O)C(=O)OCc1ccccc1 (some centres undefined)	GI50	> 100 µM (inactive)
O=c1cc(CBr)c2ccc(O)cc2o1	GI50	62.4 µM (inactive)
CCCC(O)c1cn(C(NC(=O)c2ccccc2)P(=O)(OCC)OCC)nn1 (centres undefined)	GI50	> 100 µM (inactive)
CSc1cc(Cl)c(C)cc1S(=O)(=O)NC(=O)NNc1cccc(C(F)(F)F)n1	GI50	> 100 µM (inactive)
CC(C)(C)OC(=O)C1C(=O)NC(=O)CC1C(COCc1ccccc1)OCc1ccccc1 (centres undefined)	GI50	12.4 µM (inactive)
NC(=O)c1csc(C2(O)COC(CO)C2O)n1 (centres undefined)	GI50	> 100 µM (inactive)
COc1ccc(C[C@@H](C(=O)NCC(N)=O)N(C)C(=O)[C@@H]2CCCN2C(=O)[C@H](CC(C)C)NC(=O)C(C)NC(=O)OCc2ccccc2)cc1 (some centres undefined) (Cbz-[ξA]LP[NMeY](Me)G-NH2)	GI50	> 100 µM (inactive)
CSC1=N/C(=C\c2ccc(Cl)cc2)C(=O)N1CN1CCCCC1	GI50	35.3 µM (inactive)
NNC(=O)Cc1cccnc1	GI50	> 100 µM (inactive)
CCOC(=O)Cc1nc2c(O)ncnc2n1C1OC(COC(C)=O)C(OC(C)=O)C1OC(C)=O (centres undefined)	GI50	> 100 µM (inactive)
CN(C)CCC(C#N)(c1ccccc1)c1ccccc1	GI50	87.3 µM (inactive)
O=C(O)c1cc2ccccc2c2c1C(=O)c1ccccc1-2	GI50	> 100 µM (inactive)
O=C1CCCC1CC(CN1CCOCC1)Sc1nnnn1-c1ccccc1 (centres undefined)	GI50	> 100 µM (inactive)
CC1=C(/C=C/C(C)=C/C=C/C(C)=C/CO)C(C)(C)CCC1 [RETINOL]	GI50	38.9 µM (inactive)
CC(=O)OC12c3ccccc3C(c3ccccc31)C1C(=O)N(Nc3ccccc3)C(=O)C12 (centres undefined)	GI50	> 100 µM (inactive)
COc1cc2c(cc1OC)C13CCN4CC5=CCOC6CC(=O)N2C1C6C5CC43O (centres undefined)	GI50	> 100 µM (inactive)
COC(=O)C(Cc1ccccc1)NC(=O)C(CCCNC(=N)N)NC(=O)OCc1ccccc1 (centres undefined)	GI50	> 100 µM (inactive)
CCOc1ccc(N/C(=C(/C(Cl)=C(/Cl)N(CC)CC)[N+](=O)[O-])n2nnc3ccccc32)cc1	GI50	17.5 µM (inactive)

###

System: SK-OV-3
Assay: NCI tumour cell line growth inhibition, 48 h
Calls of active or inactive are those of the source. Cut-off read from the data, not from the text of the source: active = GI50 up to about 1.1 µM and inactive = higher.
Outcomes: TRUE for active, FALSE for inactive

compound	category
O=C(c1cc2c(C(F)(F)F)onc2c2ccccc12)C(F)(F)F	FALSE
COc1ccc([C@H](NC(=O)c2ccccc2)[C@@H](O)C(=O)O[C@H]2C[C@@]3(O)C(OC(=O)c4ccccc4)C4[C@](C)(C(=O)[C@H](OC(C)=O)C(=C2C)C3(C)C)[C@@H](O)C[C@H]2OC[C@@]42OC(C)=O)cc1 (stereo not given in full)	TRUE
COC(=O)CN(CC1O[C@@H]2OC(C)(C)O[C@@H]2C1NC(C)=O)C(=O)OCc1ccccc1 (stereo not given in full)	FALSE
COc1ccc(C2C3=C(CCCC3=O)N(c3ccccc3)C3=C2C(=O)CCC3)cc1	FALSE
CSc1cc(Cl)c(C)cc1S(=O)(=O)NC(=O)NNc1cccc(C(F)(F)F)n1	FALSE
CC(=O)C(=Cc1ccc(C=C(C(C)=O)C(C)=O)cc1)C(C)=O	FALSE
O=[N+]([O-])c1ccc(C2N3CCCCC3[C@H]3CCCCN23)cc1 (stereo not given in full)	FALSE
C[C@]12CCc3nonc3C1CC[C@@H]1C2CC[C@]2(C)NC(=O)CCC12 (stereo not given in full)	FALSE
COc1ccc2c(c1)CN1CCc3c(cc(OC)c(OC)c3OC)C1C2 (stereo not given)	FALSE
CC(NC(=O)/C(=C/c1ccccc1O)NC(=O)c1ccccc1)C(=O)O (stereo not given)	FALSE
CCCCCCCCCCCCCCCCCCNc1ccn(C2OC(CO)C(OP(=O)(O)OCC(COP(=O)(O)OCC3OC(n4cc(F)c(NCCCCCCCCCCCCCCCCCC)nc4=O)CC3O)OC(=O)CCCCCCCCCCCCCCC)C2O)c(=O)n1 (stereo not given)	FALSE
O=c1cc(CBr)c2ccc(O)cc2o1	FALSE
CCOC(=O)c1nn2c(nc1=O)sc1ccc3ccccc3c12	FALSE
O=c1onc2c3ccccc3ncn12	FALSE
O=C1NC2ON=C(c3ccccc3)C2C2ON=C(c3ccccc3)N12 (stereo not given)	FALSE
COc1ccc(-n2c(=O)n(C)c(=O)n2-c2ccc(OC)cc2)cc1	FALSE
O=C(CCc1nnc(S)[nH]1)Nc1cc(Cl)ccc1Cl	FALSE
C/C(O)=C1\CC2CN3CCc4c([nH]c5ccccc45)C3CC2CC1=O (stereo not given)	FALSE
NC(=O)NCCSC1CCCCC1O (stereo not given)	FALSE
COc1ccccc1C[C@@H]1OC2(C=CC(=O)CC2SC(=O)c2ccccc2)O[C@H]1Cc1ccccc1OC (stereo not given in full)	FALSE
